Data origin, for the record: the supplement of paper PMC10065799

# assay_target: Fyn (UniProt P06241)
# Sequence (P06241 whole entry, looked up): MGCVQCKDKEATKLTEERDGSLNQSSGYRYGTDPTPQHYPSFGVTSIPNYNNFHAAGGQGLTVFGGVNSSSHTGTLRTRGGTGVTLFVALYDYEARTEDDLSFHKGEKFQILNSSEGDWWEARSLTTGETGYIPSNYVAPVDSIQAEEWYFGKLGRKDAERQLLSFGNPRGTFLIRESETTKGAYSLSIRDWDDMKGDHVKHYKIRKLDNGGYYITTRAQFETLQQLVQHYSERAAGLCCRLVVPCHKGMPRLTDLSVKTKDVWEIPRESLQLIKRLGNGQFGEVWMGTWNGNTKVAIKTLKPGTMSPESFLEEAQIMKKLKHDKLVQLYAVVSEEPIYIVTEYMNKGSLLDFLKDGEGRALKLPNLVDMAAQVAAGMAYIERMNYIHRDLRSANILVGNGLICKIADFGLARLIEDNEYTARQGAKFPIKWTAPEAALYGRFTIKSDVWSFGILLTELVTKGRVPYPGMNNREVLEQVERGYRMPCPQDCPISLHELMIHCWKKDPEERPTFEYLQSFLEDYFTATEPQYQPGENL
# protocol_description: phosphorylation enrichment, bacterial display (enrichment ratio); higher = better substrate or ligand; peptides without Tyr show the background;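 also: 11-residue human phosphosite peptides and single-mutation variants displayed on the E. coli surface, counted by deep sequencing, each peptide's frequency after selection divided by its frequency in the unselected input library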;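 also: frequency after pTyr selection over input frequency; kinase dosed for 20-30% of maximal phosphorylation in three min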
Task for the reader: assign each of the following sequences its reported phosphorylation enrichment.
Answers are plain numbers.

Would you please look over these solved cases?
| sequence_string | readout_kind | result_number |
| --- | --- | --- |
| ALAHKYPGGGG [HBB_Y146_H147P] | phosphorylation enrichment | 0.559 |
| TLNHQYDYTFD [CSNK1A1_Y292] | phosphorylation enrichment | 0.519 |
| ISHVAYRVLGK [TRRAP_Y892] | phosphorylation enrichment | 0.394 |

Provide phosphorylation enrichment values for the following items, in order.
1. DLSEVYKPCRK [CCDC93_Y176_R179C]
2. FCRIMYDIFPF [INTS13_Y67_YF]
3. DAPVVYLGSFG [PRAG1_Y132_R137G]
4. VKANTYEKYWP [GATM_Y100]
5. TNEYEYDELIV [TGM1_Y136_D132N]
6. PSTFRYERGSR [INPPL1_Y663_P659S_YF]
7. TLKVGYKEKQR [EPHA3_Y659_T660K]
8. QFFQSYFNNNF [ZNF236_Y644]

A.
1: 0.451; 2: 1.31; 3: 0.514; 4: 1.32; 5: 0.952; 6: 0.408; 7: 0.333; 8: 0.682

Provide phosphorylation enrichment values for the following items, in order.
1. LFSINYLHFGD [KDM4C_Y201_E206D_YF]
2. SGDDGYAKDAQ [TENM4_Y1530_K1535Q]
3. GELQGYDIMEP [MSH2_Y863_S860L]
4. DPADRYLTEQY [CDKL5_Y286_C291Y]
5. CLEKEYFDQHF [NPC1_Y394_R389C]
6. NVKGIYAVGDV [GSR_Y371]

A.
0.561
0.508
0.412
0.478
0.514
4.37

Provide phosphorylation enrichment values for the following items, in order.
1. YIRRDYEACKA [BBS4_Y48_K46R]
2. EIRTQYEVMAS [GFAP_Y242_A244V]
3. NRLTDYFELLL [BBS10_Y536_P539L_YF]

A.
[0.572, 0.484, 0.622]

Provide phosphorylation enrichment values for the following items, in order.
1. FGLPRYRWLTH [TSPAN12_Y143_YF]
2. EADRKYEEVAR [TPM3_Y163]

A.
1: 0.552; 2: 0.58

###

# assay_target: Jak2 (UniProt O60674)
# Sequence (O60674 whole entry, looked up): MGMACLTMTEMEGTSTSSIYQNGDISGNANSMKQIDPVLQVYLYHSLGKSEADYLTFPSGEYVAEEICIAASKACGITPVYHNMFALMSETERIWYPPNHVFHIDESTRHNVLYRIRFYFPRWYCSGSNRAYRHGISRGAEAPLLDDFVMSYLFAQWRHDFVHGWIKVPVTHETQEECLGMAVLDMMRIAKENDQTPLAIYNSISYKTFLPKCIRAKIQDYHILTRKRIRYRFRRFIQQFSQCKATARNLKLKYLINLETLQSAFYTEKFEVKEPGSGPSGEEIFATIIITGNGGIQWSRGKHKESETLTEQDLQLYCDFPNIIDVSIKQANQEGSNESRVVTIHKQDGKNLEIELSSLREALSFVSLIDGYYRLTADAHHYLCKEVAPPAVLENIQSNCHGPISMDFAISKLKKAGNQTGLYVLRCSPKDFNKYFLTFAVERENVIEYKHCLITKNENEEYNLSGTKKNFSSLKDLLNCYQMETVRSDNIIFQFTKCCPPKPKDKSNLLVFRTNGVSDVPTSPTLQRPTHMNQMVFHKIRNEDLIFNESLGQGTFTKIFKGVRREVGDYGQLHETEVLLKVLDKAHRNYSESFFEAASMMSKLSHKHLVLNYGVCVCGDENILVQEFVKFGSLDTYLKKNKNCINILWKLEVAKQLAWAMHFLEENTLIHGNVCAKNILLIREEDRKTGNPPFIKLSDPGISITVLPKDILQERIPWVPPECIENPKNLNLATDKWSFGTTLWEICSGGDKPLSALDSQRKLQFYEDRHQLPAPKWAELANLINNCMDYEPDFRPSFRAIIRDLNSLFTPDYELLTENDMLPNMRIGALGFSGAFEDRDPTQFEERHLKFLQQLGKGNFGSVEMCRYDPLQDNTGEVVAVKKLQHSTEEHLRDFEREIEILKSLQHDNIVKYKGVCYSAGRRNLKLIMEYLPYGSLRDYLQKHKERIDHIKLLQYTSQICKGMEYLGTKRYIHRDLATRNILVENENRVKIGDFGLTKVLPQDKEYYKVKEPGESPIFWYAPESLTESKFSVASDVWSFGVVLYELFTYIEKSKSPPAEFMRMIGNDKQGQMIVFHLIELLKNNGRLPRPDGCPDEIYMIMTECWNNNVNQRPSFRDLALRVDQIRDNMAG
# protocol_description: phosphorylation enrichment, bacterial display (enrichment ratio); higher = better substrate or ligand; peptides without Tyr show the background
Tick class 1 if phosphorylation enrichment is 0.7 or greater. Tick class 0 if phosphorylation enrichment is less than 0.7.

Use these answered entries as a reference point.
| sequence_string | assay_target | group |
| --- | --- | --- |
| PEVRRCVLPLN [RPE65_Y368_Y368C] | Jak2 (UniProt O60674) | class 1 |
| NSIGNYYKPWF [DHCR24_Y299] | Jak2 (UniProt O60674) | class 1 |
| RFLRGYRQFAF [HLA-A_Y137_D140Y_YF] | Jak2 (UniProt O60674) | class 0 |
| FGDTPYIPFRD [CDC14C_Y132] | Jak2 (UniProt O60674) | class 0 |
| DQLVKHGVNPG [TMPO_Y127_Y127H] | Jak2 (UniProt O60674) | class 0 |
| TMKSHYMELFD [BBS2_Y644_R643H_YF] | Jak2 (UniProt O60674) | class 1 |
| IWGKKYPTCNS [PTPRZ1_Y53_N48I] | Jak2 (UniProt O60674) | class 0 |
| PNEAVYTKMMT [G6PD_Y401] | Jak2 (UniProt O60674) | class 1 |

Q. // inclusive: phosphorylation enrichment at least 0.7? input: LTNDRYVATLT [IL6ST_Y396_L397V]
A. class 1
